This listing pairs compounds with measured efflux ratio.
# System: human MDR1 (P-gp)
# assay: Efflux ratio of permeability from basolateral to apical side to apical to basolateral side of MDCK cells expressing human MDR1
# Assay type: ADME, cell-based, Canis lupus familiaris
# stated-conditions: dog

{"columns": ["compound", "efflux ratio"],
 "data": [
  ["CCC[C@H](NC1CCc2cc(F)cc(F)c2C1)C(=O)Nc1cn(C(C)(C)CN2CCCC2)cn1 (mixture of isomers)", 1.5],
  ["CCC[C@H](NC1CCc2cccc(Cl)c2C1)C(=O)Nc1cn(C(C)(C)CN2CCCC2)cn1 (mixture of isomers)", 3.3],
  ["CCC[C@H](NC(=O)Cc1cc(F)cc(F)c1)C(=O)Nc1cn(C(C)(C)CNCC(C)(C)C)cn1", 8.4],
  ["CCC[C@H](NC1Cc2ccccc2C1)C(=O)Nc1cn(C(C)(C)CN2CCCC2)cn1", 1.8]
]}
